Target: UniProt:O14684
Assay: Inhibition of mPGES-1 in human A549 cell microsomes assessed as conversion of PGH2 into PGE2 at 3.3 uM at 0 degC after 5 mins by HPLC-UV analysis
Details: Microsome
Calls of active or inactive are those of the source. The calls are words filed in the database; no cut-off is given here.
MEASUREMENT NAME: inhibition

Solved cases (10 shown):
Cc1c(C(=O)c2cccc3ccccc23)c(C)n(C)c1CCC(=O)O; inactive
Cc1c(C(=O)c2ccccc2)c(C)n(C)c1CCC(=O)O; inactive
CCCCCCC(=O)c1c(C)c(CCC(=O)O)n(C)c1C; inactive
Cc1c(C(=O)c2ccc3ccccc3c2)c(C)n(C)c1CCC(=O)O; inactive
CCCCCCCOc1cccc(C(=O)c2c(C)c(CCC(=O)O)n(C)c2C)c1; 67%
CCCCCCCCCC(=O)c1c(C)c(CCC(=O)O)n(C)c1C; 62%
Cc1c(C(=O)c2ccc(-c3ccccc3)cc2)c(C)n(C)c1CCC(=O)O; inactive
CCCCCCCCCCCC(=O)c1c(C)c(CCC(=O)O)n(C)c1C; 74%
CCCCCCCCCCCCCCCCCC(=O)c1c(C)c(CCC(=O)O)n(C)c1C; inactive
CCCCCCOc1ccc(C(=O)c2c(C)c(CCC(=O)O)n(C)c2C)cc1; 64%

Continue with the next compound.
INPUT: Which inhibition reading was recorded for the compound CCCCCCCCCCCCCCCC(=O)c1c(C)c(CCC(=O)O)n(C)c1C ?
OUTPUT: 35%

* * *

Molecular target: Prostaglandin E synthase (Homo sapiens)
Test: Inhibition of human recombinant mPGES-1 in assessed as conversion of PGH2 into PGE2 at 1 uM at 20 degC after 5 mins by HPLC-UV analysis
Activity calls are given as the source filed them. No cut-off for these calls is given here.
MEASUREMENT NAME: inhibition

Solved cases (5 shown):
CCCCCCCCCCCC(=O)c1cc(CCC(=O)O)n(C)c1; inactive
Cc1c(C(=O)c2cccc3ccccc23)c(C)n(C)c1CCC(=O)O; inactive
Cc1c(C(=O)c2ccc3ccccc3c2)c(C)n(C)c1CCC(=O)O; inactive
CCCCCCC(=O)c1c(C)c(CCC(=O)O)n(C)c1C; inactive
Cc1c(C(=O)Cc2ccc(-c3ccccc3)cc2)c(C)n(C)c1CCC(=O)O; inactive

Continue with the next molecule.
INPUT: Which inhibition reading was recorded for the molecule CCCCCCCCCCCC(=O)c1c(C)c(CCC(=O)O)n(C)c1C ?
OUTPUT: 54%

* * *

Target: Prostaglandin E synthase (Homo sapiens)
Sequence (whole entry): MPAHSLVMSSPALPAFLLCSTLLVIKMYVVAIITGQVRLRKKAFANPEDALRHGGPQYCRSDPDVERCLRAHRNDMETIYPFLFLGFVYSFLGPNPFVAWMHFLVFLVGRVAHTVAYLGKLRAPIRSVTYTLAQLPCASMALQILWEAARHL
Assay: Inhibition of human recombinant mPGES-1 in assessed as conversion of PGH2 into PGE2 at 1 uM at 20 degC after 5 mins by HPLC-UV analysis
Activity calls are given as the source filed them. No cut-off for these calls is given here.
MEASUREMENT NAME: inhibition

Solved cases (5 shown):
CCCCCCCCCCCC(=O)c1c(C)c(CCC#N)n(C)c1C; 22%
CCCCCCCCCCCC(=O)c1c(C)c(C(=O)O)n(C)c1C; 59%
CCCCCCOc1ccc(C(=O)c2c(C)c(CCC(=O)O)n(C)c2C)cc1; 32%
Cc1c(C(=O)CCc2ccccc2)c(C)n(C)c1CCC(=O)O; inactive
CCCCCCCCCCCC(=O)c1c(C)c(CCC(=O)O)n(Cc2ccccc2)c1C; 62%

INPUT: Which inhibition reading was recorded for the compound CCCCCCCCCCCC(=O)c1c(C)c(CC(=O)O)n(-c2ccccc2)c1C ?
OUTPUT: 23%

INPUT: Try this compound next: CCCCCCCCCCCC(=O)c1c(C)c(CCC(=O)O)n(Cc2ccc(C(N)=O)cc2)c1C
OUTPUT: 28%

INPUT: Try this compound next: CCCCCCCCCCCC(=O)c1c(C)[nH]c(CC(=O)O)c1C
OUTPUT: 17%

INPUT: Try this compound next: CCCCCCCCCCCC(=O)c1c(C)c(CCCC(=O)O)n(C)c1C
OUTPUT: 70%

INPUT: Try this compound next: CCCCCCCCOc1ccccc1C(=O)c1c(C)c(CCC(=O)O)n(C)c1C
OUTPUT: inactive

INPUT: Try this compound next: CCCCCCCCCCCC(=O)c1c(C)c(CCC(=O)O)n(Cc2ccc(O)cc2)c1C
OUTPUT: 53%

INPUT: Try this compound next: CCCCCCCCCCCC(=O)c1c(C)c(CCC(=O)O)n(Cc2ccc(C(=O)O)cc2)c1C
OUTPUT: 27%

INPUT: Try this compound next: CCCCCCCCCCCC(=O)c1c(C)[nH]c(CCC(=O)O)c1C
OUTPUT: 38%

INPUT: Try this compound next: Cc1c(C(=O)c2ccc(-c3ccccc3)cc2)c(C)n(C)c1CCC(=O)O
OUTPUT: inactive

INPUT: Try this compound next: CCCCCCCCCC(=O)c1c(C)c(CCC(=O)O)n(C)c1C
OUTPUT: inactive

INPUT: Try this compound next: CCCCCCCCCCCC(=O)c1c(C)[nH]c(C(=O)O)c1C
OUTPUT: 62%

INPUT: Try this compound next: CCCCCCCCCCCC(=O)c1cc(C(=O)O)n(C)c1
OUTPUT: inactive

INPUT: Try this compound next: CCCCCCCCCCCC(=O)c1c(C)c(CCC(=O)O)n(Cc2ccc(C)cc2)c1C
OUTPUT: 52%

INPUT: Try this compound next: CCCCCCCCCCCC(=O)c1c(C)c(CCC(N)=O)n(C)c1C
OUTPUT: 39%

INPUT: Try this compound next: Cc1c(C(=O)c2ccccc2)c(C)n(C)c1CCC(=O)O
OUTPUT: inactive

INPUT: Try this compound next: CCCCCCCCCCCC(=O)c1c(C)c(C(=O)O)n(Cc2ccccc2)c1C
OUTPUT: 65%

* * *

Biological target: Prostaglandin E synthase (Homo sapiens) (UniProt O14684)
Experiment: Inhibition of human recombinant mPGES-1 in assessed as conversion of PGH2 into PGE2 at 1 uM at 20 degC after 5 mins by HPLC-UV analysis
The source made the active and inactive calls. No cut-off for these calls is given here.
MEASUREMENT NAME: inhibition

Solved cases (5 shown):
CCCCCCCCCCCCc1c(C)c(C(=O)O)n(C)c1C; 37%
CCCCCCCCCCCC(=O)c1c(C)c(C(=O)O)n(-c2ccccc2)c1C; 99%
CCCCCCCCCCCC(=O)c1c(C)c(CCC(=O)NS(C)(=O)=O)n(C)c1C; 52%
CCCCCCCCCCCCCC(=O)c1c(C)c(CCC(=O)O)n(C)c1C; 91%
CCCC(=O)c1c(C)c(CCC(=O)O)n(C)c1C; inactive

INPUT: Kindly state the measured inhibition obtained for CCCCCCCCCCCCCCCC(=O)c1c(C)c(CCC(=O)O)n(C)c1C with Prostaglandin E synthase (Homo sapiens) (UniProt O14684).
OUTPUT: 97%

INPUT: Try this compound next: CCCCCCCCCCCC(=O)c1c(-c2ccccc2)c(CCC(=O)O)n(Cc2ccccc2)c1C
OUTPUT: 64%

* * *

Target: Prostaglandin E synthase (Homo sapiens) (UniProt O14684)
Experiment: Inhibition of human recombinant mPGES-1 in assessed as conversion of PGH2 into PGE2 at 1 uM at 20 degC after 5 mins by HPLC-UV analysis
Active and inactive are the calls of the source. The calls are words filed in the database; no cut-off is given here.
MEASUREMENT NAME: inhibition

Solved cases (5 shown):
CCCCCCCCCCCC(=O)c1c(C)c(CCC(=O)O)n(Cc2ccc(Cl)cc2)c1C; 78%
CCCCCCCCCCCC(=O)c1c(C)c(CCC(=O)NS(=O)(=O)c2ccccc2)n(C)c1C; 77%
CCCCCCCCCCCC(=O)c1cc(CC(=O)O)n(C)c1; inactive
CCCCCCCCCCCC(=O)c1c(C)c(CCC(=O)O)n(-c2ccccc2)c1C; 65%
CCCCCCCCCCCC(=O)c1c(C)c(CCC(=O)NN)n(C)c1C; 35%

INPUT: Which inhibition reading was recorded for the compound CCCCCCCCCCCC(=O)c1c(C)c(CCC(=O)O)n(Cc2ccc(OC)cc2)c1C ?
OUTPUT: 72%

INPUT: Try this compound next: CCCCCCCCCCCCCCCCCC(=O)c1c(C)c(CCC(=O)O)n(C)c1C
OUTPUT: 97%

INPUT: Try this compound next: CCCCCCCCCCCC(=O)c1c(-c2ccccc2)c(CCC(=O)O)n(C)c1C
OUTPUT: 90%

INPUT: Try this compound next: CCCCCCCOc1cccc(C(=O)c2c(C)c(CCC(=O)O)n(C)c2C)c1
OUTPUT: inactive

* * *

Target: Prostaglandin E synthase (Homo sapiens) (UniProt O14684)
Test: Inhibition of human recombinant mPGES-1 in assessed as conversion of PGH2 into PGE2 at 1 uM at 20 degC after 5 mins by HPLC-UV analysis
MEASUREMENT NAME: inhibition

CCCCCCCCCCCC(=O)c1c(C)c(CC(=O)O)n(C)c1C; 22%

INPUT: Which inhibition reading was recorded for the compound CCCCCCCCCCCC(=O)c1c(C)c(CC(=O)O)n(Cc2ccccc2)c1C ?
OUTPUT: 35%
